Test system: DLD-1 colon
Assay: NCI tumour cell line growth inhibition, 48 h
Recorded measurements of TGI, one per entry

Below, each entry is followed by its recorded TGI result.
{"MOLECULE": "CC1=C(c2cc(C(=O)Nc3cc(C)ccc3C)nc(N)n2)Sc2ccccc2N1", "EXPERIMENTAL_TARGET": "DLD-1 colon", "OBSERVABLE": "TGI", "REPORTED_VALUE": "> 100 µM"}
{"MOLECULE": "CCOP1(=O)C=CC(Cl)=C(C)C1 (stereo unspecified)", "EXPERIMENTAL_TARGET": "DLD-1 colon", "OBSERVABLE": "TGI", "REPORTED_VALUE": "25.4 µM"}
{"MOLECULE": "[N-]=[N+]=NC1C2CC3C4CC5CC3[C@H](C2)C(C5)C41 (stereo partly specified)", "EXPERIMENTAL_TARGET": "DLD-1 colon", "OBSERVABLE": "TGI", "REPORTED_VALUE": "> 100 µM"}

Response field TGI (DLD-1 colon) for item NC1=NS(=O)(=O)Nc2nc(-c3ccc(Cl)cc3)[nH]c21 : > 100 µM

Response field TGI (DLD-1 colon) for item Cc1cc(C(C)C)cc(O)c(=O)c1 : > 100 µM

Response field TGI (DLD-1 colon) for item CC1(C)c2ccccc2C(C)(C)C(C(=O)Nc2ccccc2)C1C(=O)O (stereo unspecified) : > 100 µM
